System: BEAS-2B
Measurement notes: Cytotoxicity against human BEAS2B cells after 48 hrs by PrestoBlue staining based fluorescence assay
Format: cell-based
Would you kindly list CC50 for each of these compounds?
Numbers only, in µM.

Smiles input: Cc1ccoc1C(=O)N1CCCn2nc(C(=O)Nc3ccc(F)cc3F)cc2C1
Unit string: µM
CC50: 5

For every item below, please supply its CC50.
1. Cc1ccc(NC(=O)c2cc3n(n2)CCCN(C(=O)c2occc2C)C3)cc1
2. Cc1ccoc1C(=O)N1CCCn2nc(C(=O)Nc3ccncn3)cc2C1
3. Cc1ccoc1C(=O)N1CCCn2nc(C(=O)Nc3ccccc3F)cc2C1
4. Cc1ccoc1C(=O)N1CCCn2nc(C(=O)Nc3ccc(F)cc3Cl)cc2C1
5. O=C(Nc1ccccc1)c1cc2n(n1)CCCN(C(=O)c1occc1Cl)C2

30
16.6
1.1
30
30

---

Measurement notes: Selectivity index, ratio of CC50 for human BEAS2B cells to EC50 for inhibition of recombinant mkate-tagged-Respiratory syncytial virus-A2-L19F RNA-dependent RNA polymerase complex D489E mutant in human BEAS2B cells infected with Respiratory syncytial virus-A2-L19F
Assay type: toxicity, cell-based
Run parameters: read-out: Ratio CC50/EC50
Measured property: selectivity ratio
Numbers only.

Look over these answered cases.
Smiles input: Cc1ccoc1C(=O)N1CCCn2nc(C(=O)Nc3ccc(F)cc3Cl)cc2C1
selectivity ratio: 500
--
Smiles input: Cc1ccccc1NC(=O)c1cc2n(n1)CCCN(C(=O)c1occc1C)C2
selectivity ratio: 8
--
Smiles input: Cc1ccoc1C(=O)N1CCCn2nc(C(=O)NCc3ccccc3)cc2C1
selectivity ratio: 42
--
Smiles input: Cc1ccoc1C(=O)N1CCCn2nc(C(=O)Nc3ccccc3)cc2C1
selectivity ratio: 40
--
Smiles input: COc1cccc(NC(=O)c2cc3n(n2)CCCN(C(=O)c2occc2C)C3)c1
selectivity ratio: 56

# batch size: 5; output selectivity ratio per entry
1. Cc1ccc(NC(=O)c2cc3n(n2)CCCN(C(=O)c2occc2C)C3)cc1
2. Cc1ccoc1C(=O)N1CCCn2nc(C(=O)Nc3cccc(F)c3)cc2C1
3. Cc1ccoc1C(=O)N1CCCn2nc(CNc3ccccc3)cc2C1
4. Cc1ccoc1C(=O)N1CCCn2nc(C(=O)Nc3ccc(F)cc3F)cc2C1
5. Cc1ccoc1C(=O)N1CCCn2nc(C(=O)Cc3ccccc3)cc2C1

1. 73
2. 143
3. 20
4. 83
5. 79

---

Answer each item with its documented selectivity ratio.
Measurement notes: Selectivity index, ratio of CC50 for human BEAS2B cells to EC50 for inhibition of recombinant mkate-tagged-Respiratory syncytial virus-A2-L19F RNA-dependent RNA polymerase complex D489E mutant in human BEAS2B cells infected with Respiratory syncytial virus-A2-L19F
Format: toxicity, cell-based
Run parameters: read-out: Ratio CC50/EC50
Give bare numbers.

Reference set, count: 3
Smiles input: Cc1cccc(NC(=O)c2cc3n(n2)CCCN(C(=O)c2occc2C)C3)c1
Measured property: selectivity ratio
Recorded result: 12
--
Smiles input: Cc1coc(C(=O)N2CCCn3nc(C(=O)Nc4ccccc4)cc3C2)c1C
Measured property: selectivity ratio
Recorded result: 13
--
Smiles input: Cc1ccoc1C(=O)N1CCCn2nc(C(=O)Nc3ccc(F)cc3)cc2C1
Measured property: selectivity ratio
Recorded result: 273

Reported selectivity ratio for COc1ccccc1NC(=O)c1cc2n(n1)CCCN(C(=O)c1occc1C)C2 was 11
